In this section, each of the compounds is paired with its reported inhibition.
molecular target: Nitric oxide synthase 1 (Rattus norvegicus) (UniProt P29476); experiment: Inhibition of nNOS in untreated Wistar rat striata assessed as inhibition of [3H]L-arginine to [3H]L-citrulline conversion at 1 mM by liquid scintillation counting
Sequence (P29476 whole entry): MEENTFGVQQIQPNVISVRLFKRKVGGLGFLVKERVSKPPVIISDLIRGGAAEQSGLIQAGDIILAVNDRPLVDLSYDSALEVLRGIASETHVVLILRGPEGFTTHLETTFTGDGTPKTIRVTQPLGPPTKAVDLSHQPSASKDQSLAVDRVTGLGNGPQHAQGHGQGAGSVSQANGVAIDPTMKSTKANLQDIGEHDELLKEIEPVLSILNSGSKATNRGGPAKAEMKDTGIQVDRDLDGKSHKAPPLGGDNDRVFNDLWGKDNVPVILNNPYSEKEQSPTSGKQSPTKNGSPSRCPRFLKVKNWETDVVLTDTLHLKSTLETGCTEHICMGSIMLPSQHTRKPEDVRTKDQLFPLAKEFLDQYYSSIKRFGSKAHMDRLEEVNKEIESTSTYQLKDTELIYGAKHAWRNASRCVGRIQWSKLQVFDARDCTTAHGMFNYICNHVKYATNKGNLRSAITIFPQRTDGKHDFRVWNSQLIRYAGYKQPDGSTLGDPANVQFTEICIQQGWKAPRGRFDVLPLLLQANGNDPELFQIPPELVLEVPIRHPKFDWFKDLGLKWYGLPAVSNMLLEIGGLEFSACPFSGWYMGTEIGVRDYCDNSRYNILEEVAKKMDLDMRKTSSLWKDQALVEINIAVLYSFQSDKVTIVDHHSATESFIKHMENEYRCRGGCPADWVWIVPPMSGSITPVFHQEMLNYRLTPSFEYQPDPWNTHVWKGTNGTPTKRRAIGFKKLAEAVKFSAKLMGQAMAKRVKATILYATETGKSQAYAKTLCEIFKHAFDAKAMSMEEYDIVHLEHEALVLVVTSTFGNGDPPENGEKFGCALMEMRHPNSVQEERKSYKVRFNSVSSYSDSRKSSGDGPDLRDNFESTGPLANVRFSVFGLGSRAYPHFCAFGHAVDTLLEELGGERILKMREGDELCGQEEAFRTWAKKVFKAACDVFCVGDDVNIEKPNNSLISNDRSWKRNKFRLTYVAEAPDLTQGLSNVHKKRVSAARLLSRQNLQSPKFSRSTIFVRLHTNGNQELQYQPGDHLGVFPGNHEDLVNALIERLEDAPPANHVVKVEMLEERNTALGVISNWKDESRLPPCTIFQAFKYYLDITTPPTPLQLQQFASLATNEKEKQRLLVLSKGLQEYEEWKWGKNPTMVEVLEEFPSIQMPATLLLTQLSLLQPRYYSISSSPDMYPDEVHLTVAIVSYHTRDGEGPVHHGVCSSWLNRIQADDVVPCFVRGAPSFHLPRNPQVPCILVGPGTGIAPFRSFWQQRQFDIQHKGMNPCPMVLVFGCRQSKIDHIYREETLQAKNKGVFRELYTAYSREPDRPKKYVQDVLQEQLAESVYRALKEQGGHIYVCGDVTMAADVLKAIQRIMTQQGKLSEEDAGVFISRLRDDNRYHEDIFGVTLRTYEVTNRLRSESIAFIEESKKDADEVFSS

{"chemSmiles": "COC(=O)c1c(F)c(F)c(F)c2c(O)n[nH]c12", "inhibition": "5.1%"}
{"chemSmiles": "COC(=O)c1c(F)c(F)c2[nH]nc(O)c2c1F", "inhibition": "13.3%"}
{"chemSmiles": "FC(F)(F)c1n[nH]c2ccccc12", "inhibition": "69.9%"}
{"chemSmiles": "O=[N+]([O-])c1cccc2c(O)n[nH]c12", "inhibition": "18.9%"}
{"chemSmiles": "Cc1n[nH]c2ccccc12", "inhibition": "33.7%"}
{"chemSmiles": "O=C(O)c1c(F)c(F)c2[nH]nc(O)c2c1F", "inhibition": "12.1%"}
{"chemSmiles": "Oc1n[nH]c2cc(F)cc(F)c12", "inhibition": "11.1%"}
{"chemSmiles": "N#Cc1cccc2cn[nH]c12", "inhibition": "88%"}
{"chemSmiles": "c1ccc2[nH]ncc2c1", "inhibition": "11.2%"}
{"chemSmiles": "O=C(O)c1c(F)c(F)c2c(O)n[nH]c2c1F", "inhibition": "5.4%"}
{"chemSmiles": "O=C(O)c1c(F)c(F)c(F)c2[nH]nc(O)c12", "inhibition": "1.8%"}
{"chemSmiles": "CCOC(=O)c1c(F)c(F)c2[nH]nc(O)c2c1F", "inhibition": "2.5%"}
{"chemSmiles": "CCOC(=O)c1c(F)c(F)c2c(O)n[nH]c2c1F", "inhibition": "10.2%"}
{"chemSmiles": "O=[N+]([O-])c1c(F)cc(F)c2c(O)n[nH]c12", "inhibition": "14.9%"}

###

species on record: Rattus norvegicus; test: Selectivity ratio of inhibition of iNOS in Wistar rat lung to inhibition of nNOS in Wistar rat striata
measuredEndpoint: Ratio

{"chemSmiles": "Fc1c(F)c(F)c(-c2n[nH]c3c(F)c(F)c(F)c(F)c23)c(F)c1F", "measuredEndpoint": "Ratio", "recordedResult": 10}
{"chemSmiles": "O=[N+]([O-])c1c(F)cc(F)c2c(O)n[nH]c12", "measuredEndpoint": "Ratio", "recordedResult": 6}
{"chemSmiles": "Fc1c(F)c(F)c2[nH]ncc2c1F", "measuredEndpoint": "Ratio", "recordedResult": 2}
{"chemSmiles": "O=C(O)c1c(F)c(F)c(F)c2[nH]nc(O)c12", "measuredEndpoint": "Ratio", "recordedResult": 35}

###

In this section, each of the compounds is paired with its reported inhibition.
biological target: Nitric oxide synthase, inducible (Rattus norvegicus) (UniProt Q06518); assay: Inhibition of iNOS in LPS-stimulated Wistar rat lung assessed as inhibition of [3H]L-arginine to [3H]L-citrulline conversion at 1 mM by liquid scintillation counting
Sequence (Q06518 whole entry): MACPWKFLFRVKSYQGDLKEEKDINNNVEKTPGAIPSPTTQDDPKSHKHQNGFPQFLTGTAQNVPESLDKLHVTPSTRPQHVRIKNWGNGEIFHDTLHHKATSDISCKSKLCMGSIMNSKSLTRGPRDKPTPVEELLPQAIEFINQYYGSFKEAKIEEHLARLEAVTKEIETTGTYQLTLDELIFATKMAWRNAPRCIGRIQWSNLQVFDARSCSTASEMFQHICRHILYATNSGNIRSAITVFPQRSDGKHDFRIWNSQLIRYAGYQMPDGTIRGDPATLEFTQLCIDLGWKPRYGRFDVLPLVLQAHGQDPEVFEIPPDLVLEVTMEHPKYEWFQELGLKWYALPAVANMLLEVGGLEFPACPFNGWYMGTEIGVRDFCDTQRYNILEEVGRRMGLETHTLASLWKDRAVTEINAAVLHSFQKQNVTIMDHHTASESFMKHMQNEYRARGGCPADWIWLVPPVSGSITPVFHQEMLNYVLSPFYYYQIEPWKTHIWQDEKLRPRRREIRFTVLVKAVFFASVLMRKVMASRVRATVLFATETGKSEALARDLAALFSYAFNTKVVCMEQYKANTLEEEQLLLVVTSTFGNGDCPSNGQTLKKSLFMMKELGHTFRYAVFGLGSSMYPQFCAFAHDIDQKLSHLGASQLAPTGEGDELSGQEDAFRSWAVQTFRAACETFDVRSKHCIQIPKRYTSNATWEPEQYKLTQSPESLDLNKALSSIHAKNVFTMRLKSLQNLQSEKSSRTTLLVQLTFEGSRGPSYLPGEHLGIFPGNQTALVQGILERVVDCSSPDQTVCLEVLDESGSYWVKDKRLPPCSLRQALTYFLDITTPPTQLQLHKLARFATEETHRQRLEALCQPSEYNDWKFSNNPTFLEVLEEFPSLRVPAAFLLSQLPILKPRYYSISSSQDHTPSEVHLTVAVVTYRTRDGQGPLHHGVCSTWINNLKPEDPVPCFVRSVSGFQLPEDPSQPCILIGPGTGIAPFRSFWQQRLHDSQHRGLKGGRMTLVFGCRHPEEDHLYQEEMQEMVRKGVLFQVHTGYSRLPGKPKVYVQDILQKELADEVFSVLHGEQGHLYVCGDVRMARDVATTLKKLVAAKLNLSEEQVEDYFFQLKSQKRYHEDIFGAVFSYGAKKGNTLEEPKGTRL

{"chemSmiles": "Cc1n[nH]c2ccccc12", "subjectOfTest": "Nitric oxide synthase, inducible (Rattus norvegicus) (UniProt Q06518)", "unitAbbrev": "%", "inhibition": 77.4}
{"chemSmiles": "Oc1n[nH]c2cc(F)cc(F)c12", "subjectOfTest": "Nitric oxide synthase, inducible (Rattus norvegicus) (UniProt Q06518)", "unitAbbrev": "%", "inhibition": 48.1}
{"chemSmiles": "Fc1c(F)c(F)c2[nH]ncc2c1F", "subjectOfTest": "Nitric oxide synthase, inducible (Rattus norvegicus) (UniProt Q06518)", "unitAbbrev": "%", "inhibition": 98.7}
{"chemSmiles": "Cc1n[nH]c2c([N+](=O)[O-])c(F)cc(F)c12", "subjectOfTest": "Nitric oxide synthase, inducible (Rattus norvegicus) (UniProt Q06518)", "unitAbbrev": "%", "inhibition": 92}
{"chemSmiles": "CCOC(=O)c1c(F)c(F)c(F)c2c(O)n[nH]c12", "subjectOfTest": "Nitric oxide synthase, inducible (Rattus norvegicus) (UniProt Q06518)", "unitAbbrev": "%", "inhibition": 43.7}
{"chemSmiles": "COC(=O)c1c(F)c(F)c(F)c2c(O)n[nH]c12", "subjectOfTest": "Nitric oxide synthase, inducible (Rattus norvegicus) (UniProt Q06518)", "unitAbbrev": "%", "inhibition": 49.6}
{"chemSmiles": "O=C(O)c1c(F)c(F)c(F)c2c(O)n[nH]c12", "subjectOfTest": "Nitric oxide synthase, inducible (Rattus norvegicus) (UniProt Q06518)", "unitAbbrev": "%", "inhibition": 40.7}
